biological target: rBIIA isoform of Na+ channels (Rattus norvegicus); experiment: electrophysiological assay, patch-clamp recordings of voltage-sensitive Na+ currents in HEK-293 cells; conditions: rBIIA isoform of sodium channel
Sequence (P04775 whole entry, canonical isoform): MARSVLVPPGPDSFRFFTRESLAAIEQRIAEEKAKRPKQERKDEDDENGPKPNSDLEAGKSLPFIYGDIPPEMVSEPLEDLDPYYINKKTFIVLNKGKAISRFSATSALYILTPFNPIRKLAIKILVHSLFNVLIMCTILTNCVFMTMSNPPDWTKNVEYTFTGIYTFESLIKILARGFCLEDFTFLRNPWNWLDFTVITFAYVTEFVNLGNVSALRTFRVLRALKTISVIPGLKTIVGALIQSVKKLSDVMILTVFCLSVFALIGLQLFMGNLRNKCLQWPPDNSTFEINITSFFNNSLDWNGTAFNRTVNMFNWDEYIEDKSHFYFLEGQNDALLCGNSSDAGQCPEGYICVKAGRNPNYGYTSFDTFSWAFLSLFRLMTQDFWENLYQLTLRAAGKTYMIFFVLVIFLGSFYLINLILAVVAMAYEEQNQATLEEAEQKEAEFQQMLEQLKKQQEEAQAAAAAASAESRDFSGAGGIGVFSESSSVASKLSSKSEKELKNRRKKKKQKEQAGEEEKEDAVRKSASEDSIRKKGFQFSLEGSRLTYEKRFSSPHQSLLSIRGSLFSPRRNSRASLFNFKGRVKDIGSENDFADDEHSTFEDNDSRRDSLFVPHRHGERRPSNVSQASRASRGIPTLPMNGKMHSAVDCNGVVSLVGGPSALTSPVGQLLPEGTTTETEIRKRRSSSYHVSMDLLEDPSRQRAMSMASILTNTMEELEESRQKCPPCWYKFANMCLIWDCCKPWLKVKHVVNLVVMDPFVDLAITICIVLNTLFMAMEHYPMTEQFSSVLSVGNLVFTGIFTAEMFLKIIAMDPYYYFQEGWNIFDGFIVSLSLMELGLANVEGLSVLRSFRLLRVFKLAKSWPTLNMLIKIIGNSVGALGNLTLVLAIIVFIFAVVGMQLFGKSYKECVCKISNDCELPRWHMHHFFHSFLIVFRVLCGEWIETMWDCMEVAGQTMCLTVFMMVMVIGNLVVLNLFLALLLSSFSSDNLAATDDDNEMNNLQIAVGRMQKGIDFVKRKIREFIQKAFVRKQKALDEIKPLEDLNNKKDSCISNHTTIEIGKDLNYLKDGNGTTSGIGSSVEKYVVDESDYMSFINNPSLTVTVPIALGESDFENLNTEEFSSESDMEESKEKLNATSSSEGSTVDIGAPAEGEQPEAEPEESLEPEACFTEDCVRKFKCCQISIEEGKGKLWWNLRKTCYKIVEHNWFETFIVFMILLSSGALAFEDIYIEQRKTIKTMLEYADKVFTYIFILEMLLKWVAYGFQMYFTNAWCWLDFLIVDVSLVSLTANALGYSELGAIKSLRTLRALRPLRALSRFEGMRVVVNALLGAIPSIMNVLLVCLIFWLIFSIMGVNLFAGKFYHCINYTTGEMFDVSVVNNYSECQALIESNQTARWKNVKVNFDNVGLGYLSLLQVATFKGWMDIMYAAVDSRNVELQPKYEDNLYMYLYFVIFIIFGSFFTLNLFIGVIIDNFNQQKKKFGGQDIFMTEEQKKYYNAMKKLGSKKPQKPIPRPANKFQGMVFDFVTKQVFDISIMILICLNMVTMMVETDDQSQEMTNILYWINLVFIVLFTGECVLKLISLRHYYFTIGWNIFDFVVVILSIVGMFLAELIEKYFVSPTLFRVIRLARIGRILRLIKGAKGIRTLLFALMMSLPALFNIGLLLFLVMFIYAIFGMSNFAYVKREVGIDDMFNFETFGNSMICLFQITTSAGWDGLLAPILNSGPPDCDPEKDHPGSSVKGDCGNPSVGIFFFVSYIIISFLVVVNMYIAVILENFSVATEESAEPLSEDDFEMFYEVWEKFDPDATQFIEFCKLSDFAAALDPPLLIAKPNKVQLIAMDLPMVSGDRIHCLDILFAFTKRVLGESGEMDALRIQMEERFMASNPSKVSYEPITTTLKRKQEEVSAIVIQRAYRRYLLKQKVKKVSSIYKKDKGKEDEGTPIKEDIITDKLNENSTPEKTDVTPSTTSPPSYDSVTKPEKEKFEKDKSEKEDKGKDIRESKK
measurement-label: pKi
Lab note: report pKi as minus log10 of the concentration in molar units, number only.

// compound `NC(=O)c1ccn(-c2ccc(Oc3ccccc3)cc2)n1` , assay rBIIA isoform of Na+ channels (Rattus norvegicus), pKi value: 6.46
